Test system: MPO purified from the human cell line HL60
Assay: MPO inhibition, Test A (loss of ascorbate, absorbance at 260 nm)
Type: biochemical
Details: ratio TPO to MPO, selectivity for MPO over TPO
Quick list: IC50 (TPO)/IC50 (MPO) per entry.
Answer with the value's number alone.

Record excerpt, results attached:
# MOLECULE, TARGET, IC50 (TPO)/IC50 (MPO)
rows = [
    ("CNCc1cc(Cl)ccc1Cn1c(=S)[nH]c(=O)c2[nH]ccc21", "MPO purified from the human cell line HL60", 952),
    ("CNC(C)c1cc(Cl)ccc1Cn1c(=S)[nH]c(=O)c2[nH]ccc21 (centres unmarked)", "MPO purified from the human cell line HL60", 468),
    ("O=c1[nH]c(=S)n(Cc2ccccc2CNC2CCCC2)c2cc[nH]c12", "MPO purified from the human cell line HL60", 1357),
    ("CCNCc1cc(Cl)ccc1Cn1c(=S)[nH]c(=O)c2[nH]ccc21", "MPO purified from the human cell line HL60", 455),
    ("CC(C)NCc1ccccc1Cn1c(=S)[nH]c(=O)c2[nH]ccc21", "MPO purified from the human cell line HL60", 1609),
]

Prompt: Given the molecule `NCc1cc(C(F)(F)F)ccc1Cn1c(=S)[nH]c(=O)c2[nH]ccc21` , write its reported IC50 (TPO)/IC50 (MPO).
Completion: 697

Prompt: Given the molecule `O=c1[nH]c(=S)n(Cc2ccccc2CNC2CCC2)c2cc[nH]c12` , write its reported IC50 (TPO)/IC50 (MPO).
Completion: 1100

Prompt: Given the molecule `CC(C)CNCc1ccccc1Cn1c(=S)[nH]c(=O)c2[nH]ccc21` , write its reported IC50 (TPO)/IC50 (MPO).
Completion: 852

Prompt: Given the molecule `O=c1[nH]c(=S)n(Cc2ccccc2CNCC2CCC2)c2cc[nH]c12` , write its reported IC50 (TPO)/IC50 (MPO).
Completion: 552

Prompt: Given the molecule `CNCc1cc(C(F)(F)F)ccc1Cn1c(=S)[nH]c(=O)c2[nH]ccc21` , write its reported IC50 (TPO)/IC50 (MPO).
Completion: 224

Prompt: Given the molecule `CC[C@@H](N)c1cc(Cl)ccc1Cn1c(=S)[nH]c(=O)c2[nH]ccc21` , write its reported IC50 (TPO)/IC50 (MPO).
Completion: 512

* * *

Target: baculovirus-expressed recombinant human TPO (Homo sapiens (Human), UniProt P07202)
Sequence (P07202 19-933): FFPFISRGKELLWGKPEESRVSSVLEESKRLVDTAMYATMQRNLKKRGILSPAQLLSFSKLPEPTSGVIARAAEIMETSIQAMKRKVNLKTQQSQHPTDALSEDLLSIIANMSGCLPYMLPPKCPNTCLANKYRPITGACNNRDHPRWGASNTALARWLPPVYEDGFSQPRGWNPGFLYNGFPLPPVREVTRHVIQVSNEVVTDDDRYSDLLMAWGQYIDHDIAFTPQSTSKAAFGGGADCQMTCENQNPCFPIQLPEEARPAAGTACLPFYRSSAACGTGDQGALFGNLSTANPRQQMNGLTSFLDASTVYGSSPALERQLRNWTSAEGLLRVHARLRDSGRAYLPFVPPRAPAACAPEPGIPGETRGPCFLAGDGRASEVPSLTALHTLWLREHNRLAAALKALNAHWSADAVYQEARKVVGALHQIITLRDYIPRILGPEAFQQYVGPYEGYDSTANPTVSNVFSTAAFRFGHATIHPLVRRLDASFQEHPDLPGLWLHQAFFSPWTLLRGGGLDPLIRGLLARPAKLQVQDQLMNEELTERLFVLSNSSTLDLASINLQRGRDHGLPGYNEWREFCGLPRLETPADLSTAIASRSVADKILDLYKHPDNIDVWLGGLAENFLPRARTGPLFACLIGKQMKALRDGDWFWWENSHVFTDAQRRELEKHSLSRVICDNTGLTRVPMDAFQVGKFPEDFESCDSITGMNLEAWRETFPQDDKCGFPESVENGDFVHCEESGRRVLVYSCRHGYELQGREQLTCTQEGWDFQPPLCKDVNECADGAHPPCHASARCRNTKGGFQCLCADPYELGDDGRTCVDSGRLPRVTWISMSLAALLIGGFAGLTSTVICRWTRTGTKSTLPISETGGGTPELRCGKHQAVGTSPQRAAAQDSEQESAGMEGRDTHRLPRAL
Assay: TPO inhibition (hypoiodous acid production, absorbance at 353 nm)
Quick list: IC50 per entry.
Answer in µM, number only, no unit symbol.

# COMPOUND, TARGET, IC50, µM
measured = [
    ("CNCc1cc(C(F)(F)F)ccc1Cn1c(=S)[nH]c(=O)c2[nH]ccc21", "baculovirus-expressed recombinant human TPO (Homo sapiens (Human), UniProt P07202)", 11),
]

Prompt: Given the compound `O=c1[nH]c(=S)n(Cc2ccccc2CNC2CCCC2)c2cc[nH]c12` , write its reported IC50.
Completion: 19

Prompt: Given the compound `NCc1cc(Cl)ccc1Cn1c(=S)[nH]c(=O)c2[nH]ccc21` , write its reported IC50.
Completion: 11

Prompt: Given the compound `CCNCc1cc(Cl)ccc1Cn1c(=S)[nH]c(=O)c2[nH]ccc21` , write its reported IC50.
Completion: 10

Prompt: Given the compound CNC(C)c1cc(Cl)ccc1Cn1c(=S)[nH]c(=O)c2[nH]ccc21 (centres unmarked) , write its reported IC50.
Completion: 8.9

* * *

Target: baculovirus-expressed recombinant human TPO (Homo sapiens (Human), UniProt P07202)
Assay: TPO inhibition (hypoiodous acid production, absorbance at 353 nm)
Format: biochemical
Description: To detect thyroid peroxidase (TPO) inhibitory activity, the production of hypoiodous acid (HOI) was quantified. HOI was detected by reacting it with methionine, which is converted to dehydro-methionine, which in turn is detected by reacting it with excess iodide at acidic pH. The reaction converts I^− to I3^− that has absorbance at 353 nm. […]
pIC50: −log10 of the molar value.
Record True whenever pIC50 is at 5 or higher; record False when lower.

Prompt: Given `CC(C)CNCc1ccccc1Cn1c(=S)[nH]c(=O)c2[nH]ccc21` , state whether its pIC50 is at least 5.
Completion: False

* * *

This section lists IC50 readings for MPO purified from the human cell line HL60 (Homo sapiens (Human)).
Answer in nM, number only, no unit symbol.

Record excerpt, results attached:
# COMPOUND, READING_UNIT, IC50
data = [
    ("CC(C)CNCc1ccccc1Cn1c(=S)[nH]c(=O)c2[nH]ccc21 [Example 12]", "nM", 54),
    ("CNCc1cc(Cl)ccc1Cn1c(=S)[nH]c(=O)c2[nH]ccc21 [Example 8]", "nM", 13),
    ("CC[C@@H](N)c1cc(Cl)ccc1Cn1c(=S)[nH]c(=O)c2[nH]ccc21 [Example 1]", "nM", 8.6),
    ("CC(C)NCc1ccccc1Cn1c(=S)[nH]c(=O)c2[nH]ccc21 [Example 13]", "nM", 24),
    ("CCNCc1cc(Cl)ccc1Cn1c(=S)[nH]c(=O)c2[nH]ccc21 [Example 6]", "nM", 22),
]

// next entry
Prompt: Give IC50; test system MPO purified from the human cell line HL60 (Homo sapiens (Human)); compound CNC(C)c1cc(Cl)ccc1Cn1c(=S)[nH]c(=O)c2[nH]ccc21 (stereo not drawn) [Example 5]
Completion: 19

* * *

Quick list: pIC50 per entry.
Target: baculovirus-expressed recombinant human TPO (Homo sapiens (Human), UniProt P07202)
Experiment: TPO inhibition (hypoiodous acid production, absorbance at 353 nm)
# pIC50: negative log10 of molar concentration; output just the value

# COMPOUND, REPORTED
measured = [
    ("CNCc1cc(Cl)ccc1Cn1c(=S)[nH]c(=O)c2[nH]ccc21", 4.89),
    ("CC(N)c1cc(Cl)ccc1Cn1c(=S)[nH]c(=O)c2[nH]ccc21 (racemic)", 5.06),
    ("CC[C@@H](N)c1cc(Cl)ccc1Cn1c(=S)[nH]c(=O)c2[nH]ccc21", 5.36),
]

Prompt: Given the compound `NCc1cc(C(F)(F)F)ccc1Cn1c(=S)[nH]c(=O)c2[nH]ccc21` , write its reported pIC50.
Completion: 4.55

Prompt: Given the compound `O=c1[nH]c(=S)n(Cc2ccccc2CNC2CCC2)c2cc[nH]c12` , write its reported pIC50.
Completion: 4.96

Prompt: Given the compound `C[C@@H](N)c1cc(Cl)ccc1Cn1c(=S)[nH]c(=O)c2[nH]ccc21` , write its reported pIC50.
Completion: 5.37

Prompt: Given the compound `O=c1[nH]c(=S)n(Cc2ccccc2CNCC2CCC2)c2cc[nH]c12` , write its reported pIC50.
Completion: 4.80

Prompt: Given the compound `CC(C)NCc1ccccc1Cn1c(=S)[nH]c(=O)c2[nH]ccc21` , write its reported pIC50.
Completion: 4.42

Prompt: Given the compound `C[C@H](N)c1cc(Cl)ccc1Cn1c(=S)[nH]c(=O)c2[nH]ccc21` , write its reported pIC50.
Completion: 4.17
